Experiment: Inhibition of HCV genotype 1a NS5A polymerase L31V/Y93H double mutant infected in human HuH7 replicon cells by luciferase reporter gene assay
measurement label: log10 of EC50 (log10 of the value in nM)
// units: nM (pre-log); metric: EC50; scale: log10

Worked cases, answers included:
{"compound": "CNC(=O)c1c(-c2ccc(F)cc2)oc2cc3c(cc12)C(C)OCCN3S(C)(=O)=O (stereo not drawn)", "observed measurement": 1.32}
{"compound": "CNC(=O)c1c(-c2ccc(Oc3ccc(F)cc3)cc2)oc2cc3c(cc12)C(C)CCCN3S(C)(=O)=O (stereo not drawn)", "observed measurement": 1.85}
{"compound": "CNC(=O)c1c(-c2ccc(F)cc2)oc2cc3c(cc12)C(C)NCCN3S(C)(=O)=O (stereo not drawn)", "observed measurement": 2.42}
{"compound": "CS(=O)(=O)N1CCCCc2cc3c(-c4ncc[nH]4)c(-c4ccc(F)cc4)oc3cc21", "observed measurement": 1.77}
{"compound": "CNC(=O)c1c(-c2ccccc2F)oc2cc3c(cc12)C(C)CCCN3S(C)(=O)=O (stereo not drawn)", "observed measurement": 1.04}
{"compound": "CNC(=O)c1c(-c2ccc(F)cc2)nn2cc3c(cc12)C(C)CCCN3S(C)(=O)=O (stereo not drawn)", "observed measurement": 2.72}

Prompt: Data request, read-out log10 of EC50, for CNC(=O)c1c(-c2ccc(F)cc2)oc2cc3c(cc12)C(O)CCCN3S(C)(=O)=O (stereo not drawn)
Response: 2.86

Prompt: Consider next the compound `CNC(=O)c1c(-c2ccc(F)cc2)oc2cc3c(cc12)[C@@H](C)OCCN3S(C)(=O)=O` in the same way.
Response: 2.80

Prompt: Consider next the compound `CNC(=O)c1c(-c2ccc(F)cc2)oc2cc3c(cc12)CCCCN3C(=O)OC` in the same way.
Response: 2.86

Prompt: Consider next the compound CNC(=O)c1c(-c2ccc(F)cc2)oc2cc3c(cc12)C(C)CCCN3S(C)(=O)=O (stereo not drawn) in the same way.
Response: 1.00

Prompt: Consider next the compound CNC(=O)c1c(-c2ccc(F)cc2)nc2cc3c(cn12)C(C)CCCN3S(C)(=O)=O (stereo not drawn) in the same way.
Response: 2.90

Prompt: Consider next the compound CNC(=O)c1c(-c2ccc(F)cc2F)oc2cc3c(cc12)C(C)CCCN3S(C)(=O)=O (stereo not drawn) in the same way.
Response: 1.18

Prompt: Consider next the compound `C=C1CCCN(S(C)(=O)=O)c2cc3oc(-c4ccc(F)cc4)c(C(=O)NC)c3cc21` in the same way.
Response: 2.03

Prompt: Consider next the compound CNC(=O)c1c(-c2ccc(F)cc2)oc2cc3c(cc12)C(C)N(C)CCN3S(C)(=O)=O (stereo not drawn) in the same way.
Response: 1.70

----------
Experiment: Inhibition of HCV genotype 1b NS5B polymerase infected in human HuH7 replicon cells by luciferase reporter gene assay
Reported pEC50 is given for each of the following compounds.
// pEC50 here means minus log10 of the molar concentration (mol/L)

Worked cases, answers included:
{"compound": "CNC(=O)c1c(-c2ccc(F)cc2)oc2cc3c(cc12)C(C)=CCCN3S(C)(=O)=O", "measurement label": "pEC50", "observed measurement": 7.80}
{"compound": "CNC(=O)c1c(-c2ccc(F)cc2)oc2cc3c(cc12)CCCCN3S(C)(=O)=O", "measurement label": "pEC50", "observed measurement": 7.77}
{"compound": "CNC(=O)c1c(-c2ccc(F)cc2)oc2cc3c(cc12)[C@@H](C)O[C@@H](CO)CN3S(C)(=O)=O", "measurement label": "pEC50", "observed measurement": 5.83}
{"compound": "CNC(=O)c1c(-c2ccc(F)cc2)oc2cc3c(cc12)[C@H](C)n1nncc1CN3S(C)(=O)=O", "measurement label": "pEC50", "observed measurement": 8.52}
{"compound": "CNC(=O)c1c(-c2ccc(F)cc2)oc2cc3c(cc12)C(C)OC(C)CN3S(C)(=O)=O (stereo unspecified)", "measurement label": "pEC50", "observed measurement": 8.10}
{"compound": "C=C1CCCN(S(C)(=O)=O)c2cc3oc(-c4ccc(F)cc4)c(C(=O)NC)c3cc21", "measurement label": "pEC50", "observed measurement": 7.59}
{"compound": "CNC(=O)c1c(-c2ccc(F)cc2)oc2cc3c(cc12)C1(CCCN3S(C)(=O)=O)CC1", "measurement label": "pEC50", "observed measurement": 7.70}
{"compound": "CNC(=O)c1c(-c2ccc(F)cc2)oc2cc3c(cc12)[C@H](C)CCCN3S(C)(=O)=O", "measurement label": "pEC50", "observed measurement": 8.40}

Prompt: Data request, read-out pEC50, for CNC(=O)c1c(-c2ccc(F)cc2)oc2cc3c(cc12)C(C)OCC(CO)N3S(C)(=O)=O (stereo unspecified)
Response: 7.48

Prompt: Consider next the compound `CNC(=O)c1c(-c2ccc(F)cc2)oc2cc3c(cc12)[C@@H](C)CCCN3S(C)(=O)=O` in the same way.
Response: 7.34

Prompt: Consider next the compound CNC(=O)c1c(-c2ccc(F)cc2)nc2cc3c(cn12)C(C)CCCN3S(C)(=O)=O (stereo unspecified) in the same way.
Response: 6.74

Prompt: Consider next the compound `CNC(=O)c1c(-c2ccc(F)cc2)oc2cc3c(cc12)[C@@H](C)O[C@H](CO)CN3S(C)(=O)=O` in the same way.
Response: 7.16

Prompt: Consider next the compound `CNC(=O)c1c(-c2ccc(F)cc2)oc2cc3c(cc12)CCN3S(C)(=O)=O` in the same way.
Response: 6.52

Prompt: Consider next the compound CNC(=O)c1c(-c2ccc(F)cc2OC)oc2cc3c(cc12)C(C)CCCN3S(C)(=O)=O (stereo unspecified) in the same way.
Response: 7.25

Prompt: Consider next the compound CNC(=O)c1c(-c2ccc(F)cc2)oc2cc3c(cc12)C(C)NCCN3S(C)(=O)=O (stereo unspecified) in the same way.
Response: 7.37

Prompt: Consider next the compound `CNC(=O)c1c(-c2ccc(F)cc2)oc2cc3c(cc12)[C@@H](C)OCCN3S(C)(=O)=O` in the same way.
Response: 6.16

----------
Assay: Inhibition of HCV genotype 1a NS5A polymerase infected in human HuH7 replicon cells by luciferase reporter gene assay
measurement label: EC50 (nM)
The figure you give is taken to be in nM; do not add the unit.

Worked cases, answers included:
{"molecule": "CNC(=O)c1c(-c2ccc(F)cc2)oc2cc3c(cc12)[C@H](C)OC1(CC1)CN3S(C)(=O)=O", "observed measurement": 93}
{"molecule": "CNC(=O)c1c(-c2ccc(F)cc2)oc2cc3c(cc12)[C@@H](C)N(C)C(=O)CN3S(C)(=O)=O", "observed measurement": 688}
{"molecule": "CNC(=O)c1c(-c2ccc(F)cc2)oc2cc3c(cc12)C(C)OCCN3S(C)(=O)=O (stereo unspecified)", "observed measurement": 28}
{"molecule": "CNC(=O)c1c(-c2ccc(F)cc2)oc2cc3c(cc12)C(C)N(C)C(=O)CN3S(C)(=O)=O (stereo unspecified)", "observed measurement": 180}
{"molecule": "CNC(=O)c1c(-c2ccc(F)cc2)oc2cc3c(cc12)C(C)n1ccnc1CN3S(C)(=O)=O (stereo unspecified)", "observed measurement": 26}

Prompt: Data request, read-out EC50, for `CNC(=O)c1c(-c2ccc(F)cc2)oc2cc3c(cc12)[C@@H](C)O[C@H](CS(C)(=O)=O)CN3S(C)(=O)=O`
Response: 100

Prompt: Consider next the molecule CNC(=O)c1c(-c2ccc(F)cc2)oc2cc3c(cc12)C(C)OCC(CS(C)(=O)=O)N3S(C)(=O)=O (stereo unspecified) in the same way.
Response: 16

Prompt: Consider next the molecule `CNC(=O)c1c(-c2ccc(F)cc2)oc2cc3c(cc12)[C@H](C)O[C@H](CS(C)(=O)=O)CN3S(C)(=O)=O` in the same way.
Response: 4

Prompt: Consider next the molecule CNC(=O)c1c(-c2ccc(F)cc2)oc2cc3c(cc12)C(C)OC(C)CN3S(C)(=O)=O (stereo unspecified) in the same way.
Response: 33

Prompt: Consider next the molecule CNC(=O)c1c(-c2ccc(F)cc2)oc2cc3c(cc12)C(C)NC(=O)CN3S(C)(=O)=O (stereo unspecified) in the same way.
Response: 19

----------
Assay: Inhibition of HCV genotype 1b NS5B polymerase infected in human HuH7 replicon cells by luciferase reporter gene assay
measurement label: pEC50
// pEC50 here means minus log10 of the molar concentration (mol/L)

Prompt: Data request, read-out pEC50, for `CNC(=O)c1c(-c2ccc(F)cc2)oc2cc3c(cc12)CCCCN3S(=O)(=O)C1CC1`
Response: 7.14

Prompt: Consider next the compound `CNC(=O)c1c(-c2ccc(F)cc2)oc2cc3c(cc12)CCCCN3C(=O)OC` in the same way.
Response: 6.79

Prompt: Consider next the compound `CS(=O)(=O)N1CCCCc2cc3c(-c4ncn[nH]4)c(-c4ccc(F)cc4)oc3cc21` in the same way.
Response: 6.07

Value source: BindingDB's records for doi:10.1016/j.bmcl.2018.01.029
